Test system: NCI-H522
ASSAY_PROCEDURE: Growth inhibition of human NCI-H522 cells at 10 uM after 48 hrs by sulforhodamine B assay
Type: functional
TEST_CONTEXT: NCI-H522, 48 h, read-out: GI
List of inhibition of growth at 10 µM values.

>  <CHEMICAL_STRUCTURE>
NS(=O)(=O)c1cnccc1N1CCC(Cc2ccccc2)CC1

>  <RESULT_UNITS>
%

>  <inhibition of growth at 10 µM>
12

$$$$
>  <CHEMICAL_STRUCTURE>
NS(=O)(=O)c1cnccc1N1CCN(c2ccccc2)CC1

>  <RESULT_UNITS>
%

>  <inhibition of growth at 10 µM>
1

$$$$
>  <CHEMICAL_STRUCTURE>
NS(=O)(=O)c1cnccc1N1CCN(c2ccc(Cl)c(Cl)c2)CC1

>  <RESULT_UNITS>
%

>  <inhibition of growth at 10 µM>
43

$$$$
>  <CHEMICAL_STRUCTURE>
CSc1nc(N)n(-c2ccncc2S(N)(=O)=O)n1

>  <RESULT_UNITS>
%

>  <inhibition of growth at 10 µM>
1

$$$$
>  <CHEMICAL_STRUCTURE>
NS(=O)(=O)c1cnccc1N1CCN(Cc2ccc3c(c2)OCO3)CC1

>  <RESULT_UNITS>
%

>  <inhibition of growth at 10 µM>
2

$$$$
>  <CHEMICAL_STRUCTURE>
Cc1nn(-c2ccncc2S(N)(=O)=O)c(C)c1C

>  <RESULT_UNITS>
%

>  <inhibition of growth at 10 µM>
3

$$$$
>  <CHEMICAL_STRUCTURE>
NS(=O)(=O)c1cnccc1N1CCN(c2ccc(Cl)cc2)CC1

>  <RESULT_UNITS>
%

>  <inhibition of growth at 10 µM>
8

$$$$
>  <CHEMICAL_STRUCTURE>
NS(=O)(=O)c1cnccc1N1CCN(c2ncccn2)CC1

>  <RESULT_UNITS>
%

>  <inhibition of growth at 10 µM>
2

$$$$
>  <CHEMICAL_STRUCTURE>
CCc1cc(CC)n(-c2ccncc2S(N)(=O)=O)n1

>  <RESULT_UNITS>
%

>  <inhibition of growth at 10 µM>
7

$$$$
>  <CHEMICAL_STRUCTURE>
Cc1ccc(C)c(N2CCN(c3ccncc3S(N)(=O)=O)CC2)c1

>  <RESULT_UNITS>
%

>  <inhibition of growth at 10 µM>
15

$$$$
